- System: BDF1 mice, P388 leukemia ip, median survival T/C
- Experiment: NCI In Vivo Anticancer Drug Screen. Data for tumor model P388 Leukemia (intraperitoneal) in B6D2F1 (BDF1) mice
- Setup Conditions: endpoint: median survival time; dose: 400.0 mg/kg/injection; schedule: Q01DX009 (ip); vehicle: saline with Tween-80; higher = longer survival
Toxic doses and inconclusive results are not listed.
Measurement Type: T/C

q: Provide one value: measured T/C of "COc1cccc(OC)c1-c1oc2ccccc2c(=O)c1O"
a: 100 % of control

q: For "COc1ccc(C2(C#N)CC2)cc1" , write its T/C.
a: 104 % of control

q: Please report T/C for the following compound: "CCCCCCC(=O)/C=C/c1ccc(Cl)cc1Cl"
a: 98 % of control
